Hello, the source for this data is patent US12398132B2, in case you need it.

# activity values compiled below
testedOn: CDK2E1 (Homo sapiens)
settings: 1 µM
readoutName: activity

compoundSmiles	reported
CC(=O)N1CCN(c2ccc(Nc3ncc(C)c(-c4cnc5ccccn45)n3)nc2)CC1	66%
CC(=O)N1CCN(c2ccc(Nc3nccc(-c4cnc5ccc(-c6cccs6)cn45)n3)nc2)CC1	52%
CC(=O)N1CCN(c2ccc(Nc3nccc(-c4cnc5ccc(-c6cc7ccccc7n6C)cn45)n3)nc2)CC1	92%
CC(=O)N1CCN(c2ccc(Nc3nccc(-c4cnc5ccc(-c6cncnc6)cn45)n3)nc2)CC1	90%
CC(=O)N1CCN(c2ccc(Nc3nccc(-c4cnc5ccc(-c6cn(C)c7ccccc67)cn45)n3)nc2)CC1	93%
CC(=O)N1CCN(c2ccc(Nc3nccc(-c4cnc5ccc(-c6ccoc6)cn45)n3)nc2)CC1	40%
CN1CCN(c2ccc(Nc3nccc(-c4cnc5ccc(-c6cncnc6)cn45)n3)nc2)CC1	80%
CC(=O)N1CCN(c2ccc(Nc3nccc(-c4cnc5ccc(-c6cc7ccccc7o6)cn45)n3)nc2)CC1	86%

----------
testedOn: CDK7HMAT1 (Homo sapiens)
pKi: −log10 of the molar value.

compoundSmiles	testedOn	pKi
CC(=O)N1CCN(c2ccc(Nc3nccc(-c4cnc5ccc(-c6ccoc6)cn45)n3)nc2)CC1	CDK7HMAT1 (Homo sapiens)	6.73

----------
testedOn: CDK9/CyclinT1 (Homo sapiens, UniProt P50750)
Sequence (P50750 whole entry, species assumed): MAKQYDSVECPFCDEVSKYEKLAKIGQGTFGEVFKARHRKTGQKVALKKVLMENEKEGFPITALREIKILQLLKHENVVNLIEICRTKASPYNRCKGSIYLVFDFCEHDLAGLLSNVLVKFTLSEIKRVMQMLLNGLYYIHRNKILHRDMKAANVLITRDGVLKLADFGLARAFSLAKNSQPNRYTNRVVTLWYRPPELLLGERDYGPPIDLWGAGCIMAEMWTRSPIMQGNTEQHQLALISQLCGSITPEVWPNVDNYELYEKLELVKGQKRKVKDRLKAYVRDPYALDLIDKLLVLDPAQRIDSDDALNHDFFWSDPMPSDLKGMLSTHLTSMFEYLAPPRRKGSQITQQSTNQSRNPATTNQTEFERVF
Sequence (O60563 whole entry partner, species assumed): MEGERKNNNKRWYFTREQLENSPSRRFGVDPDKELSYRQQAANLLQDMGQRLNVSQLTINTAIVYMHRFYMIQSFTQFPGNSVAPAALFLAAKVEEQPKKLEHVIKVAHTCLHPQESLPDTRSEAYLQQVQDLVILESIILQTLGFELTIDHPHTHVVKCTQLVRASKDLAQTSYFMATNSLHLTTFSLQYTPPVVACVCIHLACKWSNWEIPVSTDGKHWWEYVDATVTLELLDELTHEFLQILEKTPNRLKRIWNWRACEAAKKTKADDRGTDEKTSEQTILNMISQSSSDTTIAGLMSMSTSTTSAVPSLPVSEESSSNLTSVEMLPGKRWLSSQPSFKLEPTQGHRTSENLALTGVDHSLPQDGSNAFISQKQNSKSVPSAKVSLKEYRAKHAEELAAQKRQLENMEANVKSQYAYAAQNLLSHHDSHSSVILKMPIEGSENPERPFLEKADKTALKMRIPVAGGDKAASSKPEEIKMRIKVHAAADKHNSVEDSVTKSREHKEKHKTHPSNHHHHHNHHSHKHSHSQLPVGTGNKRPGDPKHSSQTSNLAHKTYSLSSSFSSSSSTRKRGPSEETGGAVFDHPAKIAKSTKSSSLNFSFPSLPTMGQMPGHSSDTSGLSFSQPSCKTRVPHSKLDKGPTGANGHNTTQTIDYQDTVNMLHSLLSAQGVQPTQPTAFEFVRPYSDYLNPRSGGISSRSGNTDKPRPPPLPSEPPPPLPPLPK
assayText: ADP Glo kinase assay, CDK9/CyclinT1
Type: biochemical
settings: CDK9T1; compound at 1 μM (values marked *); read-out: residual enzymatic activity (%) at 1 μM*

compound	remaining activity at 1 µM, %
CS(=O)(=O)N1CCN(c2ccc(Nc3nccc(-c4cnc5ccc(Br)cn45)n3)nc2)CC1 [Cmpd 50]	48
CC(=O)N1CCN(c2ccc(Nc3ncc(F)c(-c4cnc5ccccn45)n3)nc2)CC1 [Cmpd 29]	36
CC(=O)N1CCN(c2ccc(Nc3ncc(C)c(-c4cnc5ccccn45)n3)nc2)CC1 [Cmpd 44]	93
CC(=O)N1CCN(c2ccc(Nc3nccc(-c4cnc5ccc(-c6cn(C)c7ccccc67)cn45)n3)nc2)CC1 [Cmpd 40]	82

----------
testedOn: FLT3(D835Y) (Homo sapiens, UniProt P36888, D835Y)
assayText: ADP Glo kinase assay, FLT3(D835Y)
settings: apparent Ki calculated from Km (ATP) and IC50, read-out: FLT3 inhibition Ki
# log10 of Ki values compiled below
readoutName: log10 of Ki (log10 of the value in nM)

compound	readoutName	reported
CC(=O)N1CCN(c2ccc(Nc3nccc(-c4cnc5ccc(-c6cncnc6)cn45)n3)nc2)CC1 [Cmpd 16]	log10 of Ki	1.68
CN1CCN(c2ccc(Nc3nccc(-c4cnc5ccc(Br)cn45)n3)nc2)CC1 [Cmpd 45]	log10 of Ki	1.11
CC(=O)N1CCN(c2ccc(Nc3nccc(-c4cnc5ccc(I)cn45)n3)nc2)CC1 [Cmpd 43]	log10 of Ki	1.26
CS(=O)(=O)N1CCN(c2ccc(Nc3nccc(-c4cnc5ccc(Br)cn45)n3)nc2)CC1 [Cmpd 50]	log10 of Ki	1.18
CC(=O)N1CCN(c2ccc(Nc3nccc(-c4cnc5ccc(Cl)cn45)n3)nc2)CC1 [Cmpd 9]	log10 of Ki	0.95
CN1CCN(c2ccc(Nc3nccc(-c4cnc5ccccn45)n3)nc2)CC1 [Cmpd 2]	log10 of Ki	1.69
Clc1ccc(Nc2nccc(-c3cnc4ccccn34)n2)nc1 [Cmpd 52]	log10 of Ki	2.77

----------
# Ki values compiled below
testedOn: FLT3(WT) (Homo sapiens)
Sequence (P36888 27-993): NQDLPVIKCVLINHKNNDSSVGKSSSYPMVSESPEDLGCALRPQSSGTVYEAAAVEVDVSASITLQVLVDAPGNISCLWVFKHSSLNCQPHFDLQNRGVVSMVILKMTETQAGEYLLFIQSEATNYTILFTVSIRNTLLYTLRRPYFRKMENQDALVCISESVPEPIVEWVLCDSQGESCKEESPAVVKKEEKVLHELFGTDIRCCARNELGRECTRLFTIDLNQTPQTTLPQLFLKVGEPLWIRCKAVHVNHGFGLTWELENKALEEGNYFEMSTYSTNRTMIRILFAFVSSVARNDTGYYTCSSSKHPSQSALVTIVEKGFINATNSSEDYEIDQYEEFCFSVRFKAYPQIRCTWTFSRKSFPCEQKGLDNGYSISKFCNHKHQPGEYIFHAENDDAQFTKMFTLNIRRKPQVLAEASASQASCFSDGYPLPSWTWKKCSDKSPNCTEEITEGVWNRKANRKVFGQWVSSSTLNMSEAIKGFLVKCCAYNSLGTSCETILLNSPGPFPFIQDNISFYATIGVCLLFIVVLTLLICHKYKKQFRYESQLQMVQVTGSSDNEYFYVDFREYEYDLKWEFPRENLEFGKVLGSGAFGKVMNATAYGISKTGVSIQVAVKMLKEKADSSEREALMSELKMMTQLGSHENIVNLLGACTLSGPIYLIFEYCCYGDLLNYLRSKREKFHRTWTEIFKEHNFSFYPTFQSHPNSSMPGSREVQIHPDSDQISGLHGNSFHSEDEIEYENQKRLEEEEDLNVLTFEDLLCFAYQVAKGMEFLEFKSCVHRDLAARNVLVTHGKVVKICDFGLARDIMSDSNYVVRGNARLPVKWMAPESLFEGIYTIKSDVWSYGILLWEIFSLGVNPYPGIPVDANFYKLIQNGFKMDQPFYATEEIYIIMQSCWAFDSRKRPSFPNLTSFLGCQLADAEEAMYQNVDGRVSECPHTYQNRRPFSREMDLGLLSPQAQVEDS

compound	testedOn	readoutUnits	readingQualifier	Ki
CC(=O)N1CCN(c2ccc(Nc3nccc(-c4cnc5ccc(I)cn45)n3)nc2)CC1 [Cmpd 43]	FLT3(WT) (Homo sapiens)	nM	=	38
Ic1ccc(Nc2nccc(-c3cnc4ccccn34)n2)nc1 [Cmpd 53]	FLT3(WT) (Homo sapiens)	nM	>	500
Clc1ccc(Nc2nccc(-c3cnc4ccccn34)n2)nc1 [Cmpd 52]	FLT3(WT) (Homo sapiens)	nM	>	500
CS(=O)(=O)N1CCN(c2ccc(Nc3nccc(-c4cnc5ccc(Br)cn45)n3)nc2)CC1 [Cmpd 50]	FLT3(WT) (Homo sapiens)	nM	=	35
Brc1ccc(Nc2nccc(-c3cnc4ccccn34)n2)nc1 [Cmpd 47]	FLT3(WT) (Homo sapiens)	nM	>	500
CC(=O)N1CCN(c2ccc(Nc3nccc(-c4cnc5ccc(Br)cn45)n3)nc2)CC1 [Cmpd 10]	FLT3(WT) (Homo sapiens)	nM	=	83
CN1CCN(c2ccc(Nc3nccc(-c4cnc5ccc(Br)cn45)n3)nc2)CC1 [Cmpd 45]	FLT3(WT) (Homo sapiens)	nM	=	25

----------
testedOn: CDK7HMAT1 (Homo sapiens, UniProt P50613)
Sequence (P50613 whole entry): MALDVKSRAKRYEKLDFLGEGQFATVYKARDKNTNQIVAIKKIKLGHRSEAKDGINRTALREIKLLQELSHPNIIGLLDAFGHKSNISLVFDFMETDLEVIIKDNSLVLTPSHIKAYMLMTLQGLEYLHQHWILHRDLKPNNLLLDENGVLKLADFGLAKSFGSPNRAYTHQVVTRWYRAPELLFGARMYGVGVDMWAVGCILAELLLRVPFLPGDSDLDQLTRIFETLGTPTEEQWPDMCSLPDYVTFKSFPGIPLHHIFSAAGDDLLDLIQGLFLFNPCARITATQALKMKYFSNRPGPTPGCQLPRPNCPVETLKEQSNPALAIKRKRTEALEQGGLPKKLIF
Sequence (P51946 whole entry partner): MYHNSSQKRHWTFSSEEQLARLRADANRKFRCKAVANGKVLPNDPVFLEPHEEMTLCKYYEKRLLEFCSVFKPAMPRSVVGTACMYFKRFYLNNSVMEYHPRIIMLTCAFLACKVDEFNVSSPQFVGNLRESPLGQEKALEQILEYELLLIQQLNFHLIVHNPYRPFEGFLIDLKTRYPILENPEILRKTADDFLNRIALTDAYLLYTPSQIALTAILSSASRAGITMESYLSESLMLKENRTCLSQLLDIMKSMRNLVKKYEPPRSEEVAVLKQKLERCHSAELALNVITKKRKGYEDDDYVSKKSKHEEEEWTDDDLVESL
Sequence (P51948 whole entry partner): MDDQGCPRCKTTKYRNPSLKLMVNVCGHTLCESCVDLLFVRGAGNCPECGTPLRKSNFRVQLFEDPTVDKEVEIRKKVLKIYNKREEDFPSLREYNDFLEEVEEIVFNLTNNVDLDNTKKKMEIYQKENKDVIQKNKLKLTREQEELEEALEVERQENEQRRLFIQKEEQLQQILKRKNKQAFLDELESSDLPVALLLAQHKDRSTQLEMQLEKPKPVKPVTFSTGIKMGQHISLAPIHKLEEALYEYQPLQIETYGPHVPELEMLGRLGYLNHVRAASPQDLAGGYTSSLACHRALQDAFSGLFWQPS
settings: 1 µM
# activity values compiled below

compoundSmiles	testedOn	activity, %
CC(=O)N1CCN(c2ccc(Nc3nccc(-c4cnc5ccc(-c6cc7ccccc7[nH]6)cn45)n3)nc2)CC1	CDK7HMAT1 (Homo sapiens, UniProt P50613)	103
CC(=O)N1CCN(c2ccc(Nc3nccc(-c4cnc5ccc(-c6cn(S(=O)(=O)c7ccccc7)c7ccccc67)cn45)n3)nc2)CC1	CDK7HMAT1 (Homo sapiens, UniProt P50613)	80
CC(=O)N1CCN(c2ccc(Nc3nccc(-c4cnc5ccc(-c6coc7ccccc67)cn45)n3)nc2)CC1	CDK7HMAT1 (Homo sapiens, UniProt P50613)	88
CS(=O)(=O)N1CCN(c2ccc(Nc3nccc(-c4cnc5ccc(Br)cn45)n3)nc2)CC1	CDK7HMAT1 (Homo sapiens, UniProt P50613)	57
CC(=O)N1CCN(c2ccc(Nc3nccc(-c4cnc5ccc(-c6c[nH]c7ccccc67)cn45)n3)nc2)CC1	CDK7HMAT1 (Homo sapiens, UniProt P50613)	79
CC(=O)N1CCN(c2ccc(Nc3nccc(-c4cnc5ccc(-c6c[nH]c7ncccc67)cn45)n3)nc2)CC1	CDK7HMAT1 (Homo sapiens, UniProt P50613)	80
CC(=O)N1CCN(c2ccc(Nc3nccc(-c4cnc5ccc(-c6ccsc6)cn45)n3)nc2)CC1	CDK7HMAT1 (Homo sapiens, UniProt P50613)	83
CC(=O)N1CCN(c2ccc(Nc3nccc(-c4cnc5ccc(Nc6ccccc6)cn45)n3)nc2)CC1	CDK7HMAT1 (Homo sapiens, UniProt P50613)	91
CC(=O)N1CCN(c2ccc(Nc3ncc(F)c(-c4cnc5ccc(C(F)(F)F)cn45)n3)nc2)CC1	CDK7HMAT1 (Homo sapiens, UniProt P50613)	84
CC(=O)N1CCN(c2ccc(Nc3nccc(-c4cnc5ccc(-c6csc7ccccc67)cn45)n3)nc2)CC1	CDK7HMAT1 (Homo sapiens, UniProt P50613)	81
CC(=O)N1CCN(c2ccc(Nc3nccc(-c4cnc5ccc(-c6cccc7[nH]ccc67)cn45)n3)nc2)CC1	CDK7HMAT1 (Homo sapiens, UniProt P50613)	96
CC(=O)N1CCN(c2ccc(Nc3nccc(-c4cnc5ccc(-c6cn(S(=O)(=O)c7ccccc7)c7ncccc67)cn45)n3)nc2)CC1	CDK7HMAT1 (Homo sapiens, UniProt P50613)	102
CC(=O)N1CCN(c2ccc(Nc3ncc(F)c(-c4cnc5ccc(F)cn45)n3)nc2)CC1	CDK7HMAT1 (Homo sapiens, UniProt P50613)	77
CC(=O)N1CCN(c2ccc(Nc3nccc(-c4cnc5ccc(-c6cnn(C)c6)cn45)n3)nc2)CC1	CDK7HMAT1 (Homo sapiens, UniProt P50613)	93
CC(=O)N1CCN(c2ccc(Nc3nccc(-c4cnc5ccc(-c6cn(C)c7ccccc67)cn45)n3)nc2)CC1	CDK7HMAT1 (Homo sapiens, UniProt P50613)	104
CC(=O)N1CCN(c2ccc(Nc3nccc(-c4cnc5ccc(I)cn45)n3)nc2)CC1	CDK7HMAT1 (Homo sapiens, UniProt P50613)	75
CC(=O)N1CCN(c2ccc(Nc3ncc(F)c(-c4cnc5ccccn45)n3)nc2)CC1	CDK7HMAT1 (Homo sapiens, UniProt P50613)	82
